meta.source: patent US20210246166A1

# tgt: T1, recombinant human MASP1 active protease (amino acids 297-699, C-terminal His Tag) (human, UniProt P48740 297-699)
# T1 sequence: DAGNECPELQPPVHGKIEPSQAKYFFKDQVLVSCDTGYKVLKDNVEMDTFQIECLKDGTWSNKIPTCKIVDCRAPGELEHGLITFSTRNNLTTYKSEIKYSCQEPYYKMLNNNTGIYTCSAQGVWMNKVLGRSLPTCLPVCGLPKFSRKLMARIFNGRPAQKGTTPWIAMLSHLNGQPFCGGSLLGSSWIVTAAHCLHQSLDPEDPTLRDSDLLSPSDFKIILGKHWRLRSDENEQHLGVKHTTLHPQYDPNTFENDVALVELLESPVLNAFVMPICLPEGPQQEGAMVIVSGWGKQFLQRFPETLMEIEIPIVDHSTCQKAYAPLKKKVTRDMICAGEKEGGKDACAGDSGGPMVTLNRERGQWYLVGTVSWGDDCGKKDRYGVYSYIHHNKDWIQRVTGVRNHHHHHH
# experimentNotes: cell-based or functional assay
Bridge positions count the residues as written; N and C are the ends. Square brackets hold non-standard residues; d marks the D form. Ends that are not written are not given here. Oic = O=C(O)[C@@H]1C[C@@H]2CCCC[C@@H]2N1; Pen = CC(C)(S)[C@H](N)C(=O)O; NMeA = CN[C@@H](C)C(=O)O
# human MASP1 IC50 annotations

{"columns": ["binder", "unitAnnotation", "human MASP1 IC50"],
 "data": [
  ["[NMeA]ICSRSLP[Oic]I[Pen]IP-OH (disulfide 3-11; N-terminus assumed; SMILES CC[C@H](C)[C@H](NC(=O)[C@H](C)NC)C(=O)N[C@H]1CSSC(C)(C)[C@@H](C(=O)N[C@H](C(=O)N2CCC[C@H]2C(=O)O)[C@@H](C)CC)NC(=O)[C@H]([C@@H](C)CC)NC(=O)[C@@H]2C[C@@H]3CCCC[C@@H]3N2C(=O)[C@@H]2CCCN2C(=O)[C@H](CC(C)C)NC(=O)[C@H](CO)NC(=O)[C@H](CCCNC(=N)N)NC(=O)[C@H](CO)NC1=O) [((N-Me)A)-IC+SRSLP-(Oic)-I-(Pen)+IP-OH]", "nM", 2.9],
  ["AICSRSLP[Oic]I[Pen]IPE-NH2 (disulfide 3-11; N-terminus assumed; SMILES CC[C@H](C)[C@H](NC(=O)[C@H](C)N)C(=O)N[C@H]1CSSC(C)(C)[C@@H](C(=O)N[C@H](C(=O)N2CCC[C@H]2C(=O)N[C@@H](CCC(=O)O)C(N)=O)[C@@H](C)CC)NC(=O)[C@H]([C@@H](C)CC)NC(=O)[C@@H]2C[C@@H]3CCCC[C@@H]3N2C(=O)[C@@H]2CCCN2C(=O)[C@H](CC(C)C)NC(=O)[C@H](CO)NC(=O)[C@H](CCCNC(=N)N)NC(=O)[C@H](CO)NC1=O) [AIC+SRSLP-(Oic)-I-(Pen)+IPE-NH2]", "nM", 2.8]
]}
